target of assay: ABHD12 (Mus musculus)
Construct: from tissue; host or cells: mouse brain (membrane fraction)
Sequence (Q99LR1 whole entry): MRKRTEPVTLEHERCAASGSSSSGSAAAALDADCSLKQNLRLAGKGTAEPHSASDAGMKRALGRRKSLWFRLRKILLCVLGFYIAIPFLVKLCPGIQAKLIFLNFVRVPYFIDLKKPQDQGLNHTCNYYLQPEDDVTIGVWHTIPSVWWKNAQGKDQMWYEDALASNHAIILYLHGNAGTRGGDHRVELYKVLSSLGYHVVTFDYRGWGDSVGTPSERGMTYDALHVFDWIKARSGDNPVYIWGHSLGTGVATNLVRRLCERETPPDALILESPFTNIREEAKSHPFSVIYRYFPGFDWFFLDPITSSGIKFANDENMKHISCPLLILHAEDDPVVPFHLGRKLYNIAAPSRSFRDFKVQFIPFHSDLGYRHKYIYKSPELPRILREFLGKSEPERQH
protocol description: In vitro competitive activity-based protein profiling (FP-Rhodamine probe, gel-based) in mouse brain membrane proteomes
Type: biochemical
cond: 50 μM inhibitor (stated in cell); mouse brain membrane proteome, 30 min preincubation at 37° C.
Description: Compounds were tested to assess their ABHD12 activity using the following assay. Mouse brain membrane proteomes (50 μL, 1.0 mg/mL total protein concentration) were preincubated with varying concentrations of inhibitors at 37° C. […] Following in-gel fluorescence imaging, enzyme activity was determined by measuring intensity of gel bands corresponding to ABHD12 using ImageJ software.
Below: a set of entries, each annotated with reported inhibition at 50 µM.

Here's what some known entries look like.
CC(C)OC(=O)N1CCC(Oc2ccnc(N3CCC(NC(=O)Nc4cccnc4)CC3)c2)CC1 [Example 22]: 25 to 50%
O=C(Nc1cccnc1)NC1CCN(c2cc(OCC3CC3)ccn2)CC1 [Example 19]: 50 to 75%
N#Cc1ccnc(N2CCC(NC(=O)Nc3cccnc3)CC2)c1 [Example 12]: 25 to 50%

Moving on to the next compound.
Recorded inhibition at 50 µM for O=C(Nc1cccnc1)NC1CCN(c2ccc(Cl)cn2)CC1 [Example 11] on ABHD12 (Mus musculus) was ≥ 75%
